Attribute: viability, T/C
Test system: 362531-283-R-J2-PDC complex spheroid viability
Assay: Anticancer human tumor 362531-283-R-J2-PDC patient-derived colon adenocarcinoma cell line growth inhibition [RAS]
Settings: second compound 1 µM; first compound 10 µM; stronger effect = lower value
From the text: RAS pathway inhibitors in Combinations in Complex Spheroids A high-throughput screen of multi-cell type tumor spheroids was designed to identify active combinations of RAS pathway inhibitors and targeted small molecules. Complex spheroids include a stromal component modeled by human endothelial cells (HUVEC) and fibroblasts modeled by human mesenchymal stem cells (MSCs). […] Compounds. […] If the clinical Cmax for an agent had not been determined, the highest concentration tested was 10 microM. […]
Note: unit % is implicit; provide only the numeric part.

Worked examples follow.
Cc1nc(N2CCC3(CC2)COC(C)C3N)c(CO)nc1Sc1ccnc(N)c1Cl (configuration not stated) + C#Cc1c(F)ccc2cc(O)cc(-c3ncc4c(N5CC6CCC(C5)N6)nc(OCC56CCCN5CC(F)C6)nc4c3F)c12 = 4.16
CCC(CC)c1cc(NC2CCC(N)C2)n2nccc2n1 (configuration not stated) + C#Cc1c(F)ccc2cc(O)cc(-c3ncc4c(N5CC6CCC(C5)N6)nc(OCC56CCCN5CC(F)C6)nc4c3F)c12 = 4.12
NC1c2ccccc2OC12CCN(c1cnc3c(N4CCCc5ncccc54)n[nH]c3n1)CC2 (configuration not stated) + C#Cc1c(F)ccc2cc(O)cc(-c3ncc4c(N5CC6CCC(C5)N6)nc(OCC56CCCN5CC(F)C6)nc4c3F)c12 = 1.83
C[C@@H](NC(=O)c1ncnc(N)c1Cl)c1ncc(C(=O)Nc2cc(C(F)(F)F)c(Cl)cn2)s1 + C=CC(=O)N1CCN(c2nc(OCC3CCCN3C)nc3c(F)c(-c4nc(N)cc(C)c4C(F)(F)F)c(Cl)cc23)C(C)C1 = 63.6
NC1c2ccccc2OC12CCN(c1cnc3c(N4CCCc5ncccc54)n[nH]c3n1)CC2 (configuration not stated) + C=CC(=O)N1CCN(c2nc(OCC3CCCN3C)nc3c(F)c(-c4nc(N)cc(C)c4C(F)(F)F)c(Cl)cc23)C(C)C1 = 45.7
CC(C)NCC(C(=O)N1CCN(c2ncnc3c2C(C)CC3O)CC1)c1ccc(Cl)cc1 (configuration not stated) + C#Cc1c(F)ccc2cc(O)cc(-c3ncc4c(N5CC6CCC(C5)N6)nc(OCC56CCCN5CC(F)C6)nc4c3F)c12 = 75.5

Task: If you can, please state the reported viability, T/C value of CCC(CC)c1cc(NC2CCC(N)C2)n2nccc2n1 (configuration not stated) + C=CC(=O)N1CCN(c2nc(OCC3CCCN3C)nc3c(F)c(-c4nc(N)cc(C)c4C(F)(F)F)c(Cl)cc23)C(C)C1 .
Result: 5.01

* * *

Test system: 362531-283-R-J2-PDC complex spheroid viability
Test: Anticancer human tumor 362531-283-R-J2-PDC cell line growth inhibition [RAS];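 also: spheroids exposed to the agents for 7 days before readout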;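 as to viability, T/C: luminescence viability as percent of DMSO vehicle control wells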
Settings: second compound 0.00316 µM; first compound 1 µM; stronger effect = lower value
PROPERTY NAME: viability, T/C (%)
Note: unit % is implicit; provide only the numeric part.

Worked examples follow.
C[C@@H](NC(=O)c1ncnc(N)c1Cl)c1ncc(C(=O)Nc2cc(C(F)(F)F)c(Cl)cn2)s1 + C=CC(=O)N1CCN(c2nc(OCC3CCCN3C)nc3c(F)c(-c4nc(N)cc(C)c4C(F)(F)F)c(Cl)cc23)C(C)C1 = 99.1
CCC(CC)c1cc(NC2CCC(N)C2)n2nccc2n1 (stereo not drawn) + C=CC(=O)N1CCN(c2nc(OCC3CCCN3C)nc3c(F)c(-c4nc(N)cc(C)c4C(F)(F)F)c(Cl)cc23)C(C)C1 = 95.2

Task: If you can, please state the reported viability, T/C value of CC(C)NCC(C(=O)N1CCN(c2ncnc3c2C(C)CC3O)CC1)c1ccc(Cl)cc1 (stereo not drawn) + C=CC(=O)N1CCN(c2nc(OCC3CCCN3C)nc3c(F)c(-c4nc(N)cc(C)c4C(F)(F)F)c(Cl)cc23)C(C)C1 .
Result: 91.2

* * *

Tested on: 362531-283-R-J2-PDC complex spheroid viability
Test: Anticancer human tumor 362531-283-R-J2-PDC cell line growth inhibition [RAS];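 also: spheroids exposed to the agents for 7 days before readout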;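 as to viability, T/C: luminescence viability as percent of DMSO vehicle control wells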
Settings: second compound 0.0316 µM; first compound 0.0949 µM; stronger effect = lower value
Attribute: viability, T/C

Worked examples follow.
CCc1c2c(nc3ccc(O)cc13)-c1cc3c(c(=O)n1C2)COC(=O)[C@]3(O)CC + C=CC(=O)N1CCN(c2nc(OCC3CCCN3C)nc3c(F)c(-c4nc(N)cc(C)c4C(F)(F)F)c(Cl)cc23)C(C)C1 = 37.3%
CC1(C)CCC(Nc2ncc(C(F)(F)F)c(-c3c[nH]c4c(P(C)(C)=O)c(C#N)ccc34)n2)CN1 (centres undefined) + C#Cc1c(F)ccc2cc(O)cc(-c3ncc4c(N5CC6CCC(C5)N6)nc(OCC56CCCN5CC(F)C6)nc4c3F)c12 = 107%
CCc1c2c(nc3ccc(O)cc13)-c1cc3c(c(=O)n1C2)COC(=O)[C@]3(O)CC + C#Cc1c(F)ccc2cc(O)cc(-c3ncc4c(N5CC6CCC(C5)N6)nc(OCC56CCCN5CC(F)C6)nc4c3F)c12 = 32.3%

# next molecule below
Task: If you can, please state the reported viability, T/C value of CC1(C)CCC(Nc2ncc(C(F)(F)F)c(-c3c[nH]c4c(P(C)(C)=O)c(C#N)ccc34)n2)CN1 (centres undefined) + C=CC(=O)N1CCN(c2nc(OCC3CCCN3C)nc3c(F)c(-c4nc(N)cc(C)c4C(F)(F)F)c(Cl)cc23)C(C)C1 .
Result: 106%

* * *

Tested on: 362531-283-R-J2-PDC complex spheroid viability
Experiment: Anticancer human tumor 362531-283-R-J2-PDC cell line growth inhibition [RAS];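 also: spheroids exposed to the agents for 7 days before readout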;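 as to viability, T/C: luminescence viability as percent of DMSO vehicle control wells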
Settings: second compound 0.0316 µM; first compound 0.316 µM; stronger effect = lower value
PROPERTY NAME: viability, T/C (%)
Note: unit % is implicit; provide only the numeric part.

Cc1nc(N2CCC3(CC2)COC(C)C3N)c(CO)nc1Sc1ccnc(N)c1Cl (stereo not drawn) + C#Cc1c(F)ccc2cc(O)cc(-c3ncc4c(N5CC6CCC(C5)N6)nc(OCC56CCCN5CC(F)C6)nc4c3F)c12 = 94.8
C=CC(=O)Nc1cc(Nc2nccc(-c3cn(C)c4ccccc34)n2)c(OC)cc1N(C)CCN(C)C + C#Cc1c(F)ccc2cc(O)cc(-c3ncc4c(N5CC6CCC(C5)N6)nc(OCC56CCCN5CC(F)C6)nc4c3F)c12 = 78.1

# next compound below
Task: If you can, please state the reported viability, T/C value of C=CC(=O)N1CCN(c2nc(OCC3CCCN3C)nc3c(F)c(-c4nc(N)cc(C)c4C(F)(F)F)c(Cl)cc23)C(C)C1 (stereo not drawn) + C#Cc1c(F)ccc2cc(O)cc(-c3ncc4c(N5CC6CCC(C5)N6)nc(OCC56CCCN5CC(F)C6)nc4c3F)c12 .
Result: 97.8

* * *

Attribute: pIC50
Tested on: 362531-283-R-J2-PDC complex spheroid viability
Assay: Anticancer human tumor 362531-283-R-J2-PDC cell line growth inhibition [RAS];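 also: spheroids exposed to the agents for 7 days before readout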
Conditions: curve of first compound; second compound 0.000949 µM
Scale note: pIC50 = -log10(concentration in M).

Task: If you can, please state the reported pIC50 value of CC(Nc1ccc2c(c1)OCCn1cc(N3C(=O)OCC3C(F)F)nc1-2)C(N)=O (configuration not stated) + CCn1c(-c2cccnc2C(C)OC)c2c3cc(ccc31)N1CCOC(CC(NC(=O)C(C(C)C)N(C)C(=O)C3(F)CCN(C(=O)C#CC(C)(C)N(C)C)CC3)C(=O)N3CCCC(N3)C(=O)OCC(C)(C)C2)C1 .
Result: 5.82

Task: If you can, please state the reported pIC50 value of CC(=O)OC12COC1CC(O)C1(C)C(=O)C(O)C3=C(C)C(OC(=O)C(O)C(NC(=O)OC(C)(C)C)c4ccccc4)CC(O)(C(OC(=O)c4ccccc4)C21)C3(C)C (configuration not stated) + CCn1c(-c2cccnc2C(C)OC)c2c3cc(ccc31)N1CCOC(CC(NC(=O)C(C(C)C)N(C)C(=O)C3(F)CCN(C(=O)C#CC(C)(C)N(C)C)CC3)C(=O)N3CCCC(N3)C(=O)OCC(C)(C)C2)C1 .
Result: 6.63

Task: If you can, please state the reported pIC50 value of CCC(CC)c1cc(NC2CCC(N)C2)n2nccc2n1 (configuration not stated) + CCn1c(-c2cccnc2C(C)OC)c2c3cc(ccc31)N1CCOC(CC(NC(=O)C(C(C)C)N(C)C(=O)C3(F)CCN(C(=O)C#CC(C)(C)N(C)C)CC3)C(=O)N3CCCC(N3)C(=O)OCC(C)(C)C2)C1 .
Result: 5.34

Task: If you can, please state the reported pIC50 value of CCN1CCN(Cc2ccc(Nc3ncc(F)c(-c4cc(F)c5nc(C)n(C(C)C)c5c4)n3)nc2)CC1 + CCn1c(-c2cc(N3CCN(C)CC3)cnc2C(C)OC)c2c3cc(ccc31)-c1csc(n1)CC(NC(=O)C1CC1C)C(=O)N1CCCC(N1)C(=O)OCC(C)(C)C2 .
Result: 6.08

Task: If you can, please state the reported pIC50 value of CCC(CC)c1cc(NC2CCC(N)C2)n2nccc2n1 (configuration not stated) + CCn1c(-c2cc(N3CCN(C)CC3)cnc2C(C)OC)c2c3cc(ccc31)-c1csc(n1)CC(NC(=O)C1CC1C)C(=O)N1CCCC(N1)C(=O)OCC(C)(C)C2 .
Result: 5.34
